# maps each entry to its melting point
testReadout: melting point

> print(dat)
                                    compound    measurement
 1  CC(NC(=O)c1cccnc1)c1ccccc1 (stereo not given)    88 to 89 °C
 2                      Sc1nc2cnc3ccccc3c2s1  282 to 284 °C
 3  CC(C#Cc1ccc(C(=O)Cc2ccc(F)cc2)o1)N(O)C(N)=O (stereo not given)  154 to 156 °C
 4  CCOC(=O)C(Br)=CC1C(C(=O)OC(C#N)c2cccc(Oc3ccccc3)c2)C1(C)C (stereo not given)          69 °C
 5  Oc1ccc2nc(-c3ccc(C45CC6CC(CC(C6)C4)C5)c(O)c3)[nH]c2c1  250 to 252 °C
 6  CS(=O)(=O)N1C(=O)C2(COc3cc4c(cc32)OCO4)c2ccccc21 (stereo not given)  215 to 217 °C
 7                  CC(C)(C)c1nnc(S)n(N)c1=O  209 to 212 °C
 8  CC(=NOc1ccc(F)cc1)c1cc(Cl)ccc1NS(=O)(=O)C(F)(F)F    71 to 73 °C
 9  COC(=O)c1cccc2nc(N3CCCCC3)n(Cc3ccc(-c4ccccc4C#N)cc3)c12  119 to 121 °C
10  O=C(O)CC(Sc1ccc(Cl)cc1)c1ccccc1 (stereo not given)    90 to 92 °C

Every entry's value here was drawn from a melting point compilation (Tetko et al.; mined from patent text by program, amines drawn as free bases though some values may be those of a salt).
